# EXPERIMENTAL SETUP: in n-propanol, 313.15 K
QUANTITY NAME: solubility (mole fraction)

Query (compound): `CCOC(=O)Cc1c(C(=O)OCC)sc(N(CC(=O)OCC)CC(=O)OCC)c1C#N` ; field requested: solubility (mole fraction)
0.00722

---

# EXPERIMENTAL SETUP: in acetone, 285.65 K
QUANTITY NAME: solubility (mole fraction)
Just the number.

Query (compound): `CCOC(=O)Cc1c(C(=O)OCC)sc(N(CC(=O)OCC)CC(=O)OCC)c1C#N` ; field requested: solubility (mole fraction)
0.0394

---

# EXPERIMENTAL SETUP: in ethyl acetate, 300.65 K
QUANTITY NAME: solubility (mole fraction)
Just the number.

Query (compound): `CCOC(=O)Cc1c(C(=O)OCC)sc(N(CC(=O)OCC)CC(=O)OCC)c1C#N` ; field requested: solubility (mole fraction)
0.0578

---

# EXPERIMENTAL SETUP: in n-propanol, 283.15 K
QUANTITY NAME: solubility (mole fraction)
Just the number.

Query (compound): `CCOC(=O)Cc1c(C(=O)OCC)sc(N(CC(=O)OCC)CC(=O)OCC)c1C#N` ; field requested: solubility (mole fraction)
0.000617

---

# EXPERIMENTAL SETUP: in acetonitrile, 283.15 K
QUANTITY NAME: solubility (mole fraction)
Just the number.

Query (compound): `CCOC(=O)Cc1c(C(=O)OCC)sc(N(CC(=O)OCC)CC(=O)OCC)c1C#N` ; field requested: solubility (mole fraction)
0.0196

---

# EXPERIMENTAL SETUP: in acetonitrile, 320.65 K
QUANTITY NAME: solubility (mole fraction)
Just the number.

Query (compound): `CCOC(=O)Cc1c(C(=O)OCC)sc(N(CC(=O)OCC)CC(=O)OCC)c1C#N` ; field requested: solubility (mole fraction)
0.0734

---

# EXPERIMENTAL SETUP: in cyclohexane, 303.15 K
QUANTITY NAME: solubility (mole fraction)
Just the number.

Query (molecule): `CCOC(=O)Cc1c(C(=O)OCC)sc(N(CC(=O)OCC)CC(=O)OCC)c1C#N` ; field requested: solubility (mole fraction)
0.000199

---

# EXPERIMENTAL SETUP: in isopropanol, 310.65 K
QUANTITY NAME: solubility (mole fraction)
Just the number.

Query (molecule): `CCOC(=O)Cc1c(C(=O)OCC)sc(N(CC(=O)OCC)CC(=O)OCC)c1C#N` ; field requested: solubility (mole fraction)
0.00236

---

# EXPERIMENTAL SETUP: in n-butanol, 290.65 K
QUANTITY NAME: solubility (mole fraction)
Just the number.

Query (compound): `CCOC(=O)Cc1c(C(=O)OCC)sc(N(CC(=O)OCC)CC(=O)OCC)c1C#N` ; field requested: solubility (mole fraction)
0.000753

---

# EXPERIMENTAL SETUP: in methanol, 303.15 K
QUANTITY NAME: solubility (mole fraction)
Just the number.

Query (compound): `CCOC(=O)Cc1c(C(=O)OCC)sc(N(CC(=O)OCC)CC(=O)OCC)c1C#N` ; field requested: solubility (mole fraction)
0.00556

---

# EXPERIMENTAL SETUP: in n-butanol, 295.65 K
QUANTITY NAME: solubility (mole fraction)
Just the number.

Query (compound): `CCOC(=O)Cc1c(C(=O)OCC)sc(N(CC(=O)OCC)CC(=O)OCC)c1C#N` ; field requested: solubility (mole fraction)
0.00115

---

# EXPERIMENTAL SETUP: in acetone, 318.15 K
QUANTITY NAME: solubility (mole fraction)
Just the number.

Query (compound): `CCOC(=O)Cc1c(C(=O)OCC)sc(N(CC(=O)OCC)CC(=O)OCC)c1C#N` ; field requested: solubility (mole fraction)
0.107

---

# EXPERIMENTAL SETUP: in acetone, 300.65 K
QUANTITY NAME: solubility (mole fraction)

Query (molecule): `CCOC(=O)Cc1c(C(=O)OCC)sc(N(CC(=O)OCC)CC(=O)OCC)c1C#N` ; field requested: solubility (mole fraction)
0.0627

---

# EXPERIMENTAL SETUP: in ethyl acetate, 288.15 K
QUANTITY NAME: solubility (mole fraction)
Just the number.

Query (molecule): `CCOC(=O)Cc1c(C(=O)OCC)sc(N(CC(=O)OCC)CC(=O)OCC)c1C#N` ; field requested: solubility (mole fraction)
0.0296

---

# EXPERIMENTAL SETUP: in acetonitrile, 303.15 K
QUANTITY NAME: solubility (mole fraction)

Query (compound): `CCOC(=O)Cc1c(C(=O)OCC)sc(N(CC(=O)OCC)CC(=O)OCC)c1C#N` ; field requested: solubility (mole fraction)
0.0396

---

# EXPERIMENTAL SETUP: in n-butanol, 288.15 K
QUANTITY NAME: solubility (mole fraction)

Query (compound): `CCOC(=O)Cc1c(C(=O)OCC)sc(N(CC(=O)OCC)CC(=O)OCC)c1C#N` ; field requested: solubility (mole fraction)
0.000608

---

# EXPERIMENTAL SETUP: in isopropanol, 323.15 K
QUANTITY NAME: solubility (mole fraction)

Query (compound): `CCOC(=O)Cc1c(C(=O)OCC)sc(N(CC(=O)OCC)CC(=O)OCC)c1C#N` ; field requested: solubility (mole fraction)
0.00588

---

# EXPERIMENTAL SETUP: in n-propanol, 293.15 K
QUANTITY NAME: solubility (mole fraction)
Just the number.

Query (molecule): `CCOC(=O)Cc1c(C(=O)OCC)sc(N(CC(=O)OCC)CC(=O)OCC)c1C#N` ; field requested: solubility (mole fraction)
0.00146

---

# EXPERIMENTAL SETUP: in methanol, 308.15 K
QUANTITY NAME: solubility (mole fraction)

Query (compound): `CCOC(=O)Cc1c(C(=O)OCC)sc(N(CC(=O)OCC)CC(=O)OCC)c1C#N` ; field requested: solubility (mole fraction)
0.00781

---

# EXPERIMENTAL SETUP: in n-butanol, 298.15 K
QUANTITY NAME: solubility (mole fraction)
Just the number.

Query (compound): `CCOC(=O)Cc1c(C(=O)OCC)sc(N(CC(=O)OCC)CC(=O)OCC)c1C#N` ; field requested: solubility (mole fraction)
0.0014

---

# EXPERIMENTAL SETUP: in ethanol, 298.15 K
QUANTITY NAME: solubility (mole fraction)
Just the number.

Query (compound): `CCOC(=O)Cc1c(C(=O)OCC)sc(N(CC(=O)OCC)CC(=O)OCC)c1C#N` ; field requested: solubility (mole fraction)
0.00178

---

# EXPERIMENTAL SETUP: in ethanol, 310.65 K
QUANTITY NAME: solubility (mole fraction)

Query (molecule): `CCOC(=O)Cc1c(C(=O)OCC)sc(N(CC(=O)OCC)CC(=O)OCC)c1C#N` ; field requested: solubility (mole fraction)
0.00457

---

# EXPERIMENTAL SETUP: in cyclohexane, 300.65 K
QUANTITY NAME: solubility (mole fraction)
Just the number.

Query (compound): `CCOC(=O)Cc1c(C(=O)OCC)sc(N(CC(=O)OCC)CC(=O)OCC)c1C#N` ; field requested: solubility (mole fraction)
0.00017

---

# EXPERIMENTAL SETUP: in methanol, 300.65 K
QUANTITY NAME: solubility (mole fraction)
Just the number.

Query (molecule): `CCOC(=O)Cc1c(C(=O)OCC)sc(N(CC(=O)OCC)CC(=O)OCC)c1C#N` ; field requested: solubility (mole fraction)
0.00464

---

# EXPERIMENTAL SETUP: in acetonitrile, 313.15 K
QUANTITY NAME: solubility (mole fraction)
Just the number.

Query (compound): `CCOC(=O)Cc1c(C(=O)OCC)sc(N(CC(=O)OCC)CC(=O)OCC)c1C#N` ; field requested: solubility (mole fraction)
0.0562

---

# EXPERIMENTAL SETUP: in n-propanol, 305.65 K
QUANTITY NAME: solubility (mole fraction)
Just the number.

Query (compound): `CCOC(=O)Cc1c(C(=O)OCC)sc(N(CC(=O)OCC)CC(=O)OCC)c1C#N` ; field requested: solubility (mole fraction)
0.00403

---

# EXPERIMENTAL SETUP: in isopropanol, 305.65 K
QUANTITY NAME: solubility (mole fraction)
Just the number.

Query (compound): `CCOC(=O)Cc1c(C(=O)OCC)sc(N(CC(=O)OCC)CC(=O)OCC)c1C#N` ; field requested: solubility (mole fraction)
0.00162

---

# EXPERIMENTAL SETUP: in isopropanol, 298.15 K
QUANTITY NAME: solubility (mole fraction)
Just the number.

Query (molecule): `CCOC(=O)Cc1c(C(=O)OCC)sc(N(CC(=O)OCC)CC(=O)OCC)c1C#N` ; field requested: solubility (mole fraction)
0.00091
